Test system: SK-MEL-28 melanoma
Assay: NCI-60 one-dose screen, 48 h (100 = growth as untreated, 0 = no growth, -100 = all killed)
Details: 10 µM unless noted
The panel holds about 83,000 compounds, 20% with a hit somewhere; the sample as a whole holds those more often.
Outcome Measure: growth (%)
Give bare numbers, in %.

1. O=C(NCCN1CCOCC1)c1cncnc1Nc1ccc2c(ccn2Cc2ccccn2)c1 | 108

Go through the list and state growth for each entry.
1. CO[C@H]1CC(c2ccc[nH]2)=N[C@]12O[C@@H](C)C[C@@H]1CCCCCCCc3ccc([nH]3)[C@H]12
2. C[C@H]1c2ccccc2CN1CCCOc1cc2c(cc1OCC1CC1)C1(CCCC1)C(N)=N2
3. COC(=O)c1nc(-c2ccc(C)cc2)oc1N1CCOCC1
4. COc1cc(/C=C2\CN(S(=O)(=O)c3ccc(C)cc3)C/C(=C\c3cc(CN4CCCC4)c(O)c(OC)c3)C2=O)cc(CN2CCCC2)c1O

[reply]
1. 38.6
2. -61
3. 104
4. 10.3

// provenance: PubChem BioAssay (NCI)
